- measurement description: TOR pathway LAP4-GFP level changes – S. cerevisiae, multiplex flow cytometry, primary screen (AID 1873)
- setup conditions: S. cerevisiae LAP4-GFP expression, 3 h, at 10 µM, active compounds read high
Results filed as inconclusive are left out. Active and inactive are the calls of the source.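 How the source made its calls: active means GFP signal, as percent of the solvent control, above the screen mean plus 3 SD, about 149; inconclusive means no reading because the compound's own fluorescence upset strain identification; inactive means the rest.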
Listing: GFP response vs DMSO of selected compounds

In [3]: df
Out[3]:
                                   compound    measured_attribute            result
0  CCCC(=O)Nc1ncnc2c1ncn2[C@@H]1O[C@@H]2COP(=O)(O)O[C@H]2[C@H]1OC(=O)CCC  GFP response vs DMSO  96.3% (inactive)

[ask] Report GFP response vs DMSO for CC(C)(C)OC(=O)N1CC(O)CC1C(=O)OCC(=O)c1ccc(Cl)cc1 (stereo not given) please.
[reply] 90.7% (inactive)

[ask] Report GFP response vs DMSO for Cn1nnnc1SCC1=C(C(=O)O)N2C(=O)[C@@H](NC(=O)[C@H](O)c3ccccc3)[C@H]2SC1 please.
[reply] 90.2% (inactive)

[ask] Report GFP response vs DMSO for O=C(O)C1CSC(c2ccco2)N1 (stereo not given) please.
[reply] 120% (inactive)

[ask] Report GFP response vs DMSO for Cc1ccccc1C(=O)Nc1ccccc1C(=O)NCC(C)C please.
[reply] 118% (inactive)

[ask] Report GFP response vs DMSO for Cc1ccc(N2CCN(C(=S)c3ccc(-c4cccc([N+](=O)[O-])c4)o3)CC2)cc1 please.
[reply] 126% (inactive)

Data provenance is PubChem BioAssay.
